# tested_target: T1, blood platelet receptor glycoprotein Ib-IX-V complex (GPIb) (human, UniProt P07359 17-652; P13224 26-206; P14770 17-177; P40197 17-560)
# T1 construct: whole, on cells; also called GPIb complex; GPIb receptor
# T1 sequence (P07359 17-652, chain 1 of 4): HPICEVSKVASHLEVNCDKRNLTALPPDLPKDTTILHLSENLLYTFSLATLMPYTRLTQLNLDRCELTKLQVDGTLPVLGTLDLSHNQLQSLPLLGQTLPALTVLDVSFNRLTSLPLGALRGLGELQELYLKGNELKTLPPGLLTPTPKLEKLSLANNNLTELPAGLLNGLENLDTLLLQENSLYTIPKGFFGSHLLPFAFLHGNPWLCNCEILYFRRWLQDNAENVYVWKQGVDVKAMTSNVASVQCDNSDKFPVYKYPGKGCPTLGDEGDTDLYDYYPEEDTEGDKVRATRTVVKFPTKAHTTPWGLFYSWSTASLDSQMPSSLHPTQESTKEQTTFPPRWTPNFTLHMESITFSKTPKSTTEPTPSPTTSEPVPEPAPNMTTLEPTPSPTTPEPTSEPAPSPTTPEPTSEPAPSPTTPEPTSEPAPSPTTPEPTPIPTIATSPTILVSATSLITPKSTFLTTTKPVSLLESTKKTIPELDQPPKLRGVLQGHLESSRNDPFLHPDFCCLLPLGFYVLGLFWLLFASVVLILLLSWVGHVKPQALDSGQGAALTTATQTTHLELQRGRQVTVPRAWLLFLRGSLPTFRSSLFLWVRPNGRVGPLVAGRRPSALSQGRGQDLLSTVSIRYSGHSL
# T1 sequence (P13224 26-206, chain 2 of 4): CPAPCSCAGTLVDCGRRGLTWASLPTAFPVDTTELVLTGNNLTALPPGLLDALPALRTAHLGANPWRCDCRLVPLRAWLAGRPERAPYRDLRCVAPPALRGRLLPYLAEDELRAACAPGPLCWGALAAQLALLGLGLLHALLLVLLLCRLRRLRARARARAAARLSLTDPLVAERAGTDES
# T1 sequence (P14770 17-177, chain 3 of 4): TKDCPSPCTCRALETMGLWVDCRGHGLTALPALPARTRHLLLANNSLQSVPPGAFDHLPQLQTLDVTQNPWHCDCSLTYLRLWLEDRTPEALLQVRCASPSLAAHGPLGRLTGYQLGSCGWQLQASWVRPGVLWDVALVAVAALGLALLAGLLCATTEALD
# T1 sequence (P40197 17-560, chain 4 of 4): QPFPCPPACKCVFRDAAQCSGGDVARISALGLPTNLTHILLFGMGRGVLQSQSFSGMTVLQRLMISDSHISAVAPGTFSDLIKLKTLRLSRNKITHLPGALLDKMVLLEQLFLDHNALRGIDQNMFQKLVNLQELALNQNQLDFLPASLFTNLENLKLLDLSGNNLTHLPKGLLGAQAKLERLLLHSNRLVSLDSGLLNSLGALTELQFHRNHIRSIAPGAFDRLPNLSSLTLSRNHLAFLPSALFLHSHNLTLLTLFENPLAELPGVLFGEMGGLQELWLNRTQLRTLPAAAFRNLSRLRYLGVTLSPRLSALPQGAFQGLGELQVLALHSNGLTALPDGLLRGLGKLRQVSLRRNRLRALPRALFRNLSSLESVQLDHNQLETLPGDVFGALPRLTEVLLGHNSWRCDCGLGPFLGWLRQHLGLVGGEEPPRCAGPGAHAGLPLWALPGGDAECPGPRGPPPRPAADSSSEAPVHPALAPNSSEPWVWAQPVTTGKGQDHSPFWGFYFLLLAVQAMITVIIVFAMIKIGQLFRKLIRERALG
# protocol: inhibition of static adhesion of human platelets to coated vWF-A1; grade B = IC50 between 1 µM and 10 µM
pIC50: −log10 of the molar value. Non-standard residues stand in square brackets, D forms with d. Ahp = NCCCCCCC(=O)O

binder | pIC50
cyclo(LHNL[Ahp]TERMQ) (SMILES CSCC[C@@H]1NC(=O)[C@H](CCCNC(=N)N)NC(=O)[C@H](CCC(=O)O)NC(=O)[C@H]([C@@H](C)O)NC(=O)CCCCCCNC(=O)[C@H](CC(C)C)NC(=O)[C@H](CC(N)=O)NC(=O)[C@H](Cc2c[nH]cn2)NC(=O)[C@H](CC(C)C)NC(=O)[C@H](CCC(N)=O)NC1=O) [Cyclo[Leu-His-Asn-Leu-NH-(CH2)6-CO-Thr-Glu-Arg-Met-Gln]] | 5.00 to 6.00
cyclo(LHNL[Ahp]HERMA) (SMILES CSCC[C@@H]1NC(=O)[C@H](CCCNC(=N)N)NC(=O)[C@H](CCC(=O)O)NC(=O)[C@H](Cc2c[nH]cn2)NC(=O)CCCCCCNC(=O)[C@H](CC(C)C)NC(=O)[C@H](CC(N)=O)NC(=O)[C@H](Cc2c[nH]cn2)NC(=O)[C@H](CC(C)C)NC(=O)[C@H](C)NC1=O) [Cyclo[Leu-His-Asn-Leu-NH-(CH2)6-CO-His-Glu-Arg-Met-Ala]] | 5.00 to 6.00
cyclo(LHNL[Ahp]LERMA) (SMILES CSCC[C@@H]1NC(=O)[C@H](CCCNC(=N)N)NC(=O)[C@H](CCC(=O)O)NC(=O)[C@H](CC(C)C)NC(=O)CCCCCCNC(=O)[C@H](CC(C)C)NC(=O)[C@H](CC(N)=O)NC(=O)[C@H](Cc2c[nH]cn2)NC(=O)[C@H](CC(C)C)NC(=O)[C@H](C)NC1=O) [Cyclo[Leu-His-Asn-Leu-NH-(CH2)6-CO-Leu-Glu-Arg-Met-Ala]] | 5.00 to 6.00
